- Subject Of Test: IMP-1 (Serratia marcescens)
- Sequence (P52699 whole entry, looked up): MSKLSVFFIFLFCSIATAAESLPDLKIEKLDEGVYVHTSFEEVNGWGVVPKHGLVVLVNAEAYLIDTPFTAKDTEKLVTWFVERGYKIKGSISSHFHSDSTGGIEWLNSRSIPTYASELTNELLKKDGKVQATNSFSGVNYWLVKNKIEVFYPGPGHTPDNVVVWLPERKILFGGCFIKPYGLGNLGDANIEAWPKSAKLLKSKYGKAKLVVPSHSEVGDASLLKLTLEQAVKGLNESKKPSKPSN
- Protocol: biochemical
- Type: biochemical
Could you please report measured IC50 for the items listed next?
Give bare numbers, in nM.

Answered cases to consult:
CC(C)(C)OC(=O)N1CCN(c2ccc(-c3cccc(S(N)(=O)=O)c3-c3nn[nH]n3)cc2)CC1
29.4
NC[C@H]1CC[C@@H](c2ccc(C(F)(F)F)c(S(N)(=O)=O)c2-c2nnn[nH]2)CC1
9.86
Nc1ccc(CN[C@H]2CC[C@H](c3ccc(C(F)(F)F)c(S(N)(=O)=O)c3-c3nnn[nH]3)CC2)cn1
27.4

I need IC50 for every entry listed below, if you could help.
1. NC[C@H]1CC[C@H](c2ccc(C(F)(F)F)c(S(N)(=O)=O)c2-c2nnn[nH]2)CC1
2. CC(CO)Oc1ccc(-c2cccc(S(N)(=O)=O)c2-c2nn[nH]n2)cc1 (stereo not drawn)
3. C[C@H]1NC(=O)O[C@H]1c1ccc(-c2ccnc(S(N)(=O)=O)c2-c2nnn[nH]2)cc1 (racemic)

Key:
[5.39, 39.6, 76]

----------
- Subject Of Test: NDM-1 (Klebsiella pneumoniae)
- Sequence (C7C422 whole entry, looked up, species assumed): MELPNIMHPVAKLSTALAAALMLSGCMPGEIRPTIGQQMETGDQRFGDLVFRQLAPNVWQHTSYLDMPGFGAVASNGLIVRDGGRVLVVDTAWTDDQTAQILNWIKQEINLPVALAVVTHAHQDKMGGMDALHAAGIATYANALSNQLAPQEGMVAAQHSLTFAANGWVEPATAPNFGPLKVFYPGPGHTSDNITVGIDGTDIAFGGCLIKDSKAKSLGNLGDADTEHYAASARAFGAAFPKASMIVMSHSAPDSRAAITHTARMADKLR
- Protocol: biochemical
- Assay type: biochemical
- Condition Parameters: fluorescence assay with CCF2-FA substrate; read-out: NDM-1 IC50
Metric: IC50 (nM)
One number for each entry, in nM.

COC1CCN(C(=O)c2ccc(-c3cccc(S(N)(=O)=O)c3-c3nn[nH]n3)cc2)CC1 [Example 51]
2.74
NS(=O)(=O)c1nccc(-c2cnc3[nH]ccc3c2)c1-c1nn[nH]n1 [Example 212]
7.91
CS(=O)(=O)c1ccc(-c2cccc(S(N)(=O)=O)c2-c2nn[nH]n2)cn1 [Example 58]
14.5

Exercise: For the compound NS(=O)(=O)c1c(C(F)(F)F)ccc(-c2ccc(C3CCN(C4CC5(CCNCC5)C4)CC3)cc2)c1-c1nnn[nH]1 [Example 797] , what IC50 is on record?
Key: 5.57

----------
- Subject Of Test: IMP-1 (Serratia marcescens)
- Protocol: biochemical
- Assay type: biochemical
- Condition Parameters: IMP-1 enzyme, CCF2-FA substrate; read-out: IMP-1 IC50
Give IC50 for every item shown.
Give bare numbers, in nM.

Some solved entries appear below for comparison.
Nc1nc2c(-c3ccc(CCC(=O)O)c(S(N)(=O)=O)c3-c3nn[nH]n3)cccc2s1 [Example 538]
53.8
Nc1cccc2c(-c3ccc(C(F)(F)F)c(S(N)(=O)=O)c3-c3nn[nH]n3)cc(C(=O)O)nc12 [Example 526]
4.58

Go through the list and state IC50 for each entry.
1. NS(=O)(=O)c1cccc(-c2ccc(C3CCN(C[C@H]4CNCCO4)CC3)cc2)c1-c1nnn[nH]1 [Example 619]
2. NS(=O)(=O)c1c(CCO)ccc(-c2cccc3ncccc23)c1-c1nn[nH]n1 [Example 530]
3. NS(=O)(=O)c1c(C(F)(F)F)ccc(-c2ccc(C3CNCCO3)cc2)c1-c1nnn[nH]1 (centres unmarked) [Example 713]
4. N[C@@]1(c2ccc(-c3ccc(C(F)(F)F)c(S(N)(=O)=O)c3-c3nn[nH]n3)cc2)CCNC1 [Example 548]
5. NC1=NCC(c2ccc(-c3cccc(S(N)(=O)=O)c3-c3nnn[nH]3)cc2)CN1 (centres unmarked) [Example 511]
6. Nc1nc2cc(-c3ccc(CC4CNC4)c(S(N)(=O)=O)c3-c3nn[nH]n3)ccc2[nH]1 [Example 611]

Key:
10.8
25.9
3.54
10.5
14.3
344
